Biological target: High affinity 3',5'-cyclic-AMP phosphodiesterase 7A (Homo sapiens, UniProt Q13946)
Sequence (Q13946 whole entry): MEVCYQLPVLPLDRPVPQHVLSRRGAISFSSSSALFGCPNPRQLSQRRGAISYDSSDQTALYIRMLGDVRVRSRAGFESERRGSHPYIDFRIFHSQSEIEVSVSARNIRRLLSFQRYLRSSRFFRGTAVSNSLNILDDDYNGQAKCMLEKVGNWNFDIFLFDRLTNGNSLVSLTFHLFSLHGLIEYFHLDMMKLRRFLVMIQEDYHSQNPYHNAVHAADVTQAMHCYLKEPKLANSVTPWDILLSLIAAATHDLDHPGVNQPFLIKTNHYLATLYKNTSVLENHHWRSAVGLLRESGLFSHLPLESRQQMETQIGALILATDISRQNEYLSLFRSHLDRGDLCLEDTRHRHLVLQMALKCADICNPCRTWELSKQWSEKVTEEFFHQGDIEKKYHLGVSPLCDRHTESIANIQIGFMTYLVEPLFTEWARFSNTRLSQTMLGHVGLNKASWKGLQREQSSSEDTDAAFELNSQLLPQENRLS
Experiment: Inhibition of human recombinant PDE7A1 assessed as inhibition of hydrolysis of [3H]cAMP at 10 uM after 20 mins by scintillation proximity assay
Experimental endpoint: inhibition (%)

In the examples that follow, each entry is paired with its recorded inhibition.
[[record]]
molecule = "Nc1ccccc1Sc1ccc([N+](=O)[O-])cc1Cl"
result = 60

[[record]]
molecule = "Nc1cccc(Sc2ccncc2)c1"
result = 36

[[record]]
molecule = "Nc1ccccc1Sc1ccc([N+](=O)[O-])cc1C(F)(F)F"
result = 42

[[record]]
molecule = "O=[N+]([O-])c1cc(Cl)ccc1Sc1ccccc1"
result = 87

[[record]]
molecule = "O=[N+]([O-])c1ccc(Cl)cc1Sc1ccccn1"
result = 56

[[record]]
molecule = "Nc1ccccc1Sc1cc(Cl)ccc1[N+](=O)[O-]"
result = 66


P = c1cnc(Sc2ccncc2)nc1
Q = Nc1ccc(Sc2ccc(N)cc2Cl)cc1
R = CC(=O)Nc1ccc(Sc2ccc(Cl)cc2[N+](=O)[O-])cc1
Task item: Hey, can you sort those molecules up there by inhibition, smallest first? Sort the labels as requested; that list is your answer.
Reply: R, P, Q
(R: 7%, P: 12%, Q: 46%)

1 = O=[N+]([O-])c1ccc(Sc2ccccc2Br)c(Cl)c1
2 = Cc1ccc([N+](=O)[O-])cc1S(=O)(=O)N(C)C
3 = O=[N+]([O-])c1ccc(Cl)cc1Sc1ccc(Br)cc1
4 = CC(C)c1ccc(Sc2ccc(Cl)cc2[N+](=O)[O-])cc1
5 = COc1ccc(Sc2cccnc2)cc1
Task item: Hey, can you sort those molecules up there by inhibition, smallest first? Sort the labels as requested; that list is your answer.
Reply: 4, 5, 3, 1, 2

a = O=[N+]([O-])c1cc(Cl)ccc1Sc1ccccc1Br
b = Cc1cnc(Sc2ccncc2)c([N+](=O)[O-])c1
Task item: Which has the smaller recorded inhibition, a or b ? Kindly state the label of the option you pick.
Reply: b

###

Target: UniProt:Q9NP56
Sequence (Q9NP56 whole entry): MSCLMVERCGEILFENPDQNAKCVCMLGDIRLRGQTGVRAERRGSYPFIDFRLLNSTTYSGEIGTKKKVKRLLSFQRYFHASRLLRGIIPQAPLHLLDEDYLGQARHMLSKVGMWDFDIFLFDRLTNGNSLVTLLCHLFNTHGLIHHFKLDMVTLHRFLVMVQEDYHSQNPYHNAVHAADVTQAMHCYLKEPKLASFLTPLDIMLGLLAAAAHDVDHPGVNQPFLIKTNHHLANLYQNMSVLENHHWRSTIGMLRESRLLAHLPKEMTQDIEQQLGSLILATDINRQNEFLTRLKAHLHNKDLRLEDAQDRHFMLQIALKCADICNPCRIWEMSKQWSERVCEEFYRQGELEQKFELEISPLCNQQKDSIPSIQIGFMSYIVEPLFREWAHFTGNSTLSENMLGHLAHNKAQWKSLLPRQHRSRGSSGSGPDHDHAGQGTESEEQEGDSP
Assay: Inhibition of human recombinant PDE7B assessed as inhibition of hydrolysis of [3H]cAMP at 10 uM after 20 mins by scintillation proximity assay
Experimental endpoint: inhibition (%)

In the examples that follow, each entry is paired with its recorded inhibition.
[[record]]
structure_smiles_string = "O=[N+]([O-])c1ccc(Sc2ccccn2)c(Cl)c1"
test_target = "UniProt:Q9NP56"
experimental_endpoint = "inhibition"
result = 39

[[record]]
structure_smiles_string = "O=[N+]([O-])c1ccc(Sc2ccncc2)c(Cl)c1"
test_target = "UniProt:Q9NP56"
experimental_endpoint = "inhibition"
result = 94

[[record]]
structure_smiles_string = "O=[N+]([O-])c1cc(Cl)ccc1Sc1ccccc1Br"
test_target = "UniProt:Q9NP56"
experimental_endpoint = "inhibition"
result = 92

[[record]]
structure_smiles_string = "Nc1ccc(Sc2ccc(Cl)cc2[N+](=O)[O-])cc1"
test_target = "UniProt:Q9NP56"
experimental_endpoint = "inhibition"
result = 82

[[record]]
structure_smiles_string = "O=[N+]([O-])c1ccc(Cl)cc1Sc1ccccc1Br"
test_target = "UniProt:Q9NP56"
experimental_endpoint = "inhibition"
result = 71


I = O=[N+]([O-])c1cc(Cl)ccc1Sc1ccncc1
II = Nc1ccc(Sc2ccc([N+](=O)[O-])c(Cl)c2)cc1
Task item: Just curious, which one has the larger inhibition reading, I or II ? Kindly state the label of the option you pick.
Reply: I
(I: 76%, II: 42%)
